Biological target: Apime-ASTA-R (Apis mellifera)
Sequence (A0A7M7ILT1 1-361): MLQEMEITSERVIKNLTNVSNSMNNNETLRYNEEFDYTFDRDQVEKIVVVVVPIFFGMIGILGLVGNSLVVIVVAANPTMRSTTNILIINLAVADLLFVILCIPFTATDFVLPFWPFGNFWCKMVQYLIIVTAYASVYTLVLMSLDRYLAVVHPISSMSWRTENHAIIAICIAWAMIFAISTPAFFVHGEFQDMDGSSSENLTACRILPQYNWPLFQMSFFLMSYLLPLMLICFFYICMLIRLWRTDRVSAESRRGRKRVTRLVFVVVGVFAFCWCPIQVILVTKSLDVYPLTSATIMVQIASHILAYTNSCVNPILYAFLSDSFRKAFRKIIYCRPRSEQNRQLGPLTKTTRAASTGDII
Experiment: Intracellular calcium measurement, HEK293 cells expressing Apime-ASTA-R with Gαqi9 chimeric G protein
Type: cell-based
Conditions: HEK293, Gαqi9, Fluo-4 AM, Flexstation (ex 485 nm, em 525 nm), pH 7.4; experiments in triplicate; read-out: EC50, calcium release
Description: This vector contains an ATG initiation codon in phase with a mammalian signal peptide sequence of metabotropic glutamate receptor 5 to address receptor protein to the cell membrane, with a hemagglutinin sequence (TAG HA), and MluI and HindIII restriction sites used for cloning. The coding regions of the genes of interest were PCR amplified from cDNA template. After extraction from whole brains, 1 μg of total RNA was reverse-transcribed with random primers. […]
Where no end group is shown, it is not given here.
measured-attribute: EC50

# EC50 lookup, item GRQPYSFGL-NH2 [Apime-ASTA]
1.99 nM
